- system-name: human Hsp70 in the presence of a J domain containing yeast protein (Hlj1) (Homo sapiens, UniProt P0DMV8)
- Sequence (P0DMV8 whole entry): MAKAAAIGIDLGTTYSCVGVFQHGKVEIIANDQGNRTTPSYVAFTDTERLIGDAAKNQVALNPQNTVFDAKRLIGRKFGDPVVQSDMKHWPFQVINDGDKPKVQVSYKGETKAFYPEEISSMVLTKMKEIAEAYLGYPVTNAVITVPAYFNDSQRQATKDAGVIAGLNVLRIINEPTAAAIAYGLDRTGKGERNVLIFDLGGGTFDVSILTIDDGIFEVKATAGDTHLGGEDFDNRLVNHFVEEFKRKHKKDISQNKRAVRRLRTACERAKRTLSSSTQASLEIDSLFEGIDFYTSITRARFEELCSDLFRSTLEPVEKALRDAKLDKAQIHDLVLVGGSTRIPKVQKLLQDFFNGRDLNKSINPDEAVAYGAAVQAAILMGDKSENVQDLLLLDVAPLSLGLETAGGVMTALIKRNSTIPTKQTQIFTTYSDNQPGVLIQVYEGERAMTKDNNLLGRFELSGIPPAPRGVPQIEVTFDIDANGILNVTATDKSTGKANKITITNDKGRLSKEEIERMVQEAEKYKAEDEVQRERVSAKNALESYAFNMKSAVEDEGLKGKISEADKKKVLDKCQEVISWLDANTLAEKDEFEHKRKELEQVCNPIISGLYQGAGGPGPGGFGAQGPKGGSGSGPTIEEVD
- test-protocol: steady state ATPase assay, Hsp70 stimulated by J domain protein Hlj1
pIC50: −log10 of the molar value.
readout-type: pIC50

// field: pIC50; key: CC1=C(C(=O)OCc2ccccc2)C(c2ccc(-c3ccccc3C)cc2)NC(=O)N1Cc1ccc(-c2nnn[nH]2)cc1 (stereo not shown) ; value = < 4.52

* * *

- test-protocol: aqueous solubility by LC-HRMS
- Type: physicochemical
- condition-summary: distilled water, 30 °C, thermodynamic from solid
readout-type: solubility at 24 h (µg/mL)
Value expressed in µg/mL; do not type the unit.

>>> assay_value("CC1=C(C(=O)OCc2ccccc2)C(c2ccc(-c3ccccc3C)cc2)NC(=O)N1Cc1ccc(-c2nnn[nH]2)cc1 (centres unmarked) [SMAL]")
62.4

The recorded solubility at 24 h for CC1=C(C(=O)OCc2ccccc2)C(c2ccc(-c3ccccc3)cc2)NC(=O)N1Cc1ccc(-c2nnn[nH]2)cc1 (centres unmarked) [ML282-56] is 14.4

* * *

- system-name: human Hsp70 (Homo sapiens)
- Sequence (P0DMV8 whole entry): as the sequence (P0DMV8 whole entry) above
readout-type: IC50

Value sought: IC50, system human Hsp70 (Homo sapiens), item CC1=C(C(=O)OCc2ccccc2)C(c2ccc(-c3ccccc3C)cc2)NC(=O)N1Cc1ccc(-c2nnn[nH]2)cc1 (stereo not shown) [SMAL] . Result: ~24 µM

* * *

pIC50: −log10 of the molar value.
The following compounds have recorded pIC50 on SV40 T Ag (Simian virus 40, UniProt P03070).
Sequence (P03070 whole entry): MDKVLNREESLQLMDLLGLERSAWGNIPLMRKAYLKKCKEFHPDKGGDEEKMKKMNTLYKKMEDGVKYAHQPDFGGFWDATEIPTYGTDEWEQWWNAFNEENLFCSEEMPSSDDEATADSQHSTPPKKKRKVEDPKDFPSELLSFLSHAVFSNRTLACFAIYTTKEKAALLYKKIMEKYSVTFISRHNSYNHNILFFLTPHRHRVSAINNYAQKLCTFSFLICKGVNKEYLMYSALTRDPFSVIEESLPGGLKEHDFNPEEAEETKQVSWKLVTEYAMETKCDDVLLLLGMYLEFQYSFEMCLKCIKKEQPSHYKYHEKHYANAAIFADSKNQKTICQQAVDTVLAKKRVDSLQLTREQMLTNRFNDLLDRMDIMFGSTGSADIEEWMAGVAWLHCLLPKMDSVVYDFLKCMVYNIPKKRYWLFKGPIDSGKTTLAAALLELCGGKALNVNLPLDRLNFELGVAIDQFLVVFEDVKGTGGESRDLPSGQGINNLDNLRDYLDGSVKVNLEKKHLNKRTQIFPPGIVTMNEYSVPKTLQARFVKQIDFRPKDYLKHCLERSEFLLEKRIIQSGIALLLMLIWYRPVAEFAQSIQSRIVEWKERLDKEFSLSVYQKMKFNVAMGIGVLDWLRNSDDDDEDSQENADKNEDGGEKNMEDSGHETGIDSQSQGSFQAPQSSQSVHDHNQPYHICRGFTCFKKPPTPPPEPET

>>> assay_value("CC1=C(C(=O)OCc2ccccc2)C(c2ccc(-c3ccccc3C)cc2)NC(=O)N1CCCCCc1nnn[nH]1 (stereo not drawn)")
"~4.30"
>>> assay_value("CC1=C(C(=O)OCc2ccccc2)C(c2ccc(-c3ccccc3C)cc2)NC(=O)N1Cc1ccc(-c2nnn[nH]2)cc1 (stereo not drawn)")
"~5.30"

Next compound, please.
// returns pIC50 for CC1=C(C(=O)OCc2ccccc2)C(c2ccc(-c3ccccc3)cc2)NC(=O)N1Cc1ccc(-c2nnn[nH]2)cc1 (stereo not drawn) with SV40 T Ag (Simian virus 40, UniProt P03070); value = ~4.30
